In this section we review reported interaction score values for a set of binders.
- EXPERIMENTAL SYSTEM: T1, O13-AA
- T1 chain: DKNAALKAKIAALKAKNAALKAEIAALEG
- PROTOCOL NOTES: two-hybrid library CCmax;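 note: natural log of median RNA to DNA barcode read ratio; higher means stronger binding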
- SETUP CONDITIONS: mean of both orientations

# annotated cases, reported interaction score shown
{"BINDER": "DKIAALKAENAALEAKIAALKAKNAALKG [4H2736-AA]", "interaction score": 0.351}
{"BINDER": "DKIAALKAEIAALEAKNAALKAKIAALKG [4H2622-AA]", "interaction score": 0.551}
{"BINDER": "DKNAALKAENAALEAEIAALEAEIAALEG [O1-AA]", "interaction score": 0.0154}
{"BINDER": "DEIAALEAKIAALKAENAALEAEIAALEG [4H337-AA]", "interaction score": 0.869}
{"BINDER": "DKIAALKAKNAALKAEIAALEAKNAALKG [4H3016-AA]", "interaction score": -1.87}
{"BINDER": "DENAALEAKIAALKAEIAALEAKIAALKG [4H1350-AA]", "interaction score": 0.34}

Pending binder:
// sample KELQAIEKQLAQLQWKAQARKKKLAQLKK [4H_APH] , its interaction score was -1.81
